TARGET DESC: Bromodomain-containing protein 2 (Homo sapiens, UniProt P25440)
Sequence (P25440 whole entry, the tested form may be a part): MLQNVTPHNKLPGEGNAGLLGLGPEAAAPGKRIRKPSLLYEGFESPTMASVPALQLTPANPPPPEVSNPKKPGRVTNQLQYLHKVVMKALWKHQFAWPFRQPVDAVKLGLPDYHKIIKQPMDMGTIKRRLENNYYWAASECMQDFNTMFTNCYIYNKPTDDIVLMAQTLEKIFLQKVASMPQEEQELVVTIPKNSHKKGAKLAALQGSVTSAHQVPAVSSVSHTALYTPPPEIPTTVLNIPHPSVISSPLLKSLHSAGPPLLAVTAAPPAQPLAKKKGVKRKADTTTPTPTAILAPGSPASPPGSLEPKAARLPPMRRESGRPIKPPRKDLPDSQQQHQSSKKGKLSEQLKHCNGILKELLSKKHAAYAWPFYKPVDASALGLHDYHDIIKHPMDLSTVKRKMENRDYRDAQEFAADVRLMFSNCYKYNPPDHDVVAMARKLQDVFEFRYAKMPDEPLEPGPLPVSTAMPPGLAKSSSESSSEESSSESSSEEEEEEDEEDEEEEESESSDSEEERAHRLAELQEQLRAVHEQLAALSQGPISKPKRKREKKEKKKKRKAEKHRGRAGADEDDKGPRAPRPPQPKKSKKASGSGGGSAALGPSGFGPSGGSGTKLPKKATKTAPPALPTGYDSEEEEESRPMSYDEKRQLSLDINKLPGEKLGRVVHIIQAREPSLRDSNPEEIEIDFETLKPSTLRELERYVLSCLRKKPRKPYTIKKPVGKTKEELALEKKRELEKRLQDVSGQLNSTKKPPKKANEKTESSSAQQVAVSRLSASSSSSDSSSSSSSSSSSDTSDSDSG
PROTOCOL SUMMARY: Binding affinity to human partial length BRD2 (BD1,2) (K71 to D455 residues) expressed in bacterial expression system by BROMOscan assay

{"columns": ["STRUCTURE NOTATION", "TARGET DESC", "READOUT UNIT", "Kd"],
 "data": [
  ["Cc1noc(C)c1-c1ccc2nc(-c3cnn(CC(C)(C)O)c3)nc(N3CCOC[C@@H]3c3ccccc3)c2c1", "Bromodomain-containing protein 2 (Homo sapiens, UniProt P25440)", "nM", 87]
]}

----------
TARGET DESC: Bromodomain-containing protein 4 (Homo sapiens, UniProt O60885)
PROTOCOL SUMMARY: Inhibition of human full-length recombinant N-terminal His-tagged BRD4 (2 to 1362 residues) expressed in Sf9 cells using histone H4 peptide containing acetylated lysine residues as substrate preincubated with enzyme for 30 mins followed by incubation with substrate for 30 mins by Alphascreen assay […]
// NB: equality with 80 nM counts as Not fulfilled; only IC50 strictly below is Fulfilled

{"columns": ["COMPOUND", "ASSIGNED LABEL"],
 "data": [
  ["Cn1cc(-c2ccc3nc(-c4cnn(CC(C)(C)O)c4)nc(N4CCOC[C@@H]4c4ccccc4)c3c2)ccc1=O", "Fulfilled"],
  ["Cc1noc(C)c1-c1ccc2nc(-c3cnn(CC(C)(C)O)c3)nc(N3CCOC[C@@H]3c3ccc(Cl)cc3)c2c1", "Not fulfilled"],
  ["Cc1noc(C)c1-c1ccc2nc(-c3cnn(CC(C)(C)O)c3)nc(N3CCN(S(C)(=O)=O)C[C@@H]3c3ccccc3)c2c1", "Not fulfilled"],
  ["Cc1noc(C)c1-c1ccc2nc(-c3cnn(CCO)c3)nc(N3CCOCC3c3ccccc3)c2c1 (stereo not drawn)", "Fulfilled"],
  ["CC(=O)N1CCN(c2nc(-c3cnn(CC(C)(C)O)c3)nc3ccc(-c4c(C)noc4C)cc23)[C@@H](c2ccccc2)C1", "Not fulfilled"],
  ["Cc1noc(C)c1-c1ccc2nc(-c3cnn(CC(C)(C)O)c3)nc(N3CCOC[C@@H]3c3ccccc3)c2c1", "Fulfilled"],
  ["Cc1noc(C)c1-c1ccc2nc(-c3cnn(CC(C)(C)O)c3)nc(N3CCOC[C@@H]3C3CC3)c2c1", "Fulfilled"],
  ["Cc1noc(C)c1-c1ccc2nc(-c3cnn(CC(C)(C)O)c3)nc(N3CCOC[C@@H]3c3cccs3)c2c1", "Not fulfilled"]
]}

----------
In this section, each of the compounds is paired with its reported half-life.
PROTOCOL SUMMARY: Half life in CD-1 mouse at 10 mg/kg, po
Type: ADME, organism-based
TEST CONTEXT: in vivo

{"columns": ["STRUCTURE NOTATION", "READOUT UNIT", "half-life"],
 "data": [
  ["Cc1noc(C)c1-c1ccc2nc(-c3cnn(CC(C)(C)O)c3)nc(N3CCOC[C@@H]3C3CC3)c2c1", "h", 1.8],
  ["Cc1cc(-c2ccc3nc(-c4cnn(CC(C)(C)O)c4)nc(N4CCOC[C@@H]4c4ccccc4)c3c2)cn(C)c1=O", "h", 2.7],
  ["Cc1cc(-c2ccc3nc(-c4cnn(CC(C)(C)O)c4)nc(N4CCOC[C@@H]4c4ccc(F)cc4)c3c2)cn(C)c1=O", "h", 4.2],
  ["Cc1noc(C)c1-c1ccc2nc(-c3cnn(CC(C)(C)O)c3)nc(N3CCOC[C@@H]3c3ccccc3)c2c1", "h", 1.7]
]}

----------
PROTOCOL SUMMARY: AUC(0 to infinity) in CD-1 mouse at 2 mg/kg, iv
Type: ADME, organism-based
Set-up: time infinity, route intravenous, dose 2 mg/kg
TEST CONTEXT: CD-1, mouse, in vivo
// NB: equality with 6000 ng·h/mL counts as Criterion not met; only AUC(0-inf) strictly below is Criterion met

{"columns": ["STRUCTURE NOTATION", "ASSIGNED LABEL"],
 "data": [
  ["Cc1noc(C)c1-c1ccc2nc(-c3cnn(CC(C)(C)O)c3)nc(N3CCOC[C@@H]3c3cccs3)c2c1", "Criterion met"],
  ["Cc1cc(-c2ccc3nc(-c4cnn(CC(C)(C)O)c4)nc(N4CCOC[C@@H]4c4ccccc4)c3c2)cn(C)c1=O", "Criterion not met"],
  ["Cc1noc(C)c1-c1ccc2nc(-c3cnn(CC(C)(C)O)c3)nc(N3CCOC[C@@H]3c3ccc(Cl)cc3)c2c1", "Criterion met"],
  ["Cc1noc(C)c1-c1ccc2nc(-c3cnn(CC(C)(C)O)c3)nc(N3CCOC[C@@H]3C3CC3)c2c1", "Criterion met"],
  ["Cc1noc(C)c1-c1ccc2nc(-c3cnn(CC(C)(C)O)c3)nc(N3CCN(S(C)(=O)=O)C[C@@H]3c3ccccc3)c2c1", "Criterion met"],
  ["Cc1noc(C)c1-c1ccc2nc(-c3cnn(CC(C)(C)O)c3)nc(N3CCOC[C@@H]3c3ccc(F)cc3)c2c1", "Criterion met"],
  ["Cc1cc(-c2ccc3nc(-c4cnn(CC(C)(C)O)c4)nc(N4CCOC[C@@H]4c4ccc(F)cc4)c3c2)cn(C)c1=O", "Criterion not met"],
  ["CC(=O)N1CCN(c2nc(-c3cnn(CC(C)(C)O)c3)nc3ccc(-c4c(C)noc4C)cc23)[C@@H](c2ccccc2)C1", "Criterion met"],
  ["Cn1cc(-c2ccc3nc(-c4cnn(CC(C)(C)O)c4)nc(N4CCOC[C@@H]4c4ccccc4)c3c2)ccc1=O", "Criterion met"],
  ["Cn1cc(-c2ccc3nc(-c4cnn(CC(C)(C)O)c4)nc(N4CCOC[C@@H]4c4cccs4)c3c2)ccc1=O", "Criterion met"]
]}

----------
In this section, each of the molecules is paired with its reported half-life.
PROTOCOL SUMMARY: Half life in CD-1 mouse at 10 mg/kg, po
Assay type: ADME, organism-based
TEST CONTEXT: in vivo

{"columns": ["STRUCTURE NOTATION", "half-life / h"],
 "data": [
  ["Cc1noc(C)c1-c1ccc2nc(-c3cnn(CC(C)(C)O)c3)nc(N3CCOC[C@@H]3c3cccs3)c2c1", 2.4],
  ["Cc1noc(C)c1-c1ccc2nc(-c3cnn(CC(C)(C)O)c3)nc(N3CCOC[C@@H]3c3ccc(Cl)cc3)c2c1", 2.8],
  ["Cc1noc(C)c1-c1ccc2nc(-c3cnn(CC(C)(C)O)c3)nc(N3CCOC[C@@H]3c3ccc(F)cc3)c2c1", 2.8],
  ["CC(=O)N1CCN(c2nc(-c3cnn(CC(C)(C)O)c3)nc3ccc(-c4c(C)noc4C)cc23)[C@@H](c2ccccc2)C1", 1.7]
]}

----------
In this section, each of the molecules is paired with its reported bioavailability.
PROTOCOL SUMMARY: Oral bioavailability in CD-1 mouse at 10 mg/kg
Type: ADME, organism-based
TEST CONTEXT: CD-1, mouse, in vivo
ASSAY READOUT: bioavailability

{"columns": ["STRUCTURE NOTATION", "ASSAY READOUT", "EXPERIMENTAL VALUE"],
 "data": [
  ["Cc1noc(C)c1-c1ccc2nc(-c3cnn(CC(C)(C)O)c3)nc(N3CCOC[C@@H]3c3cccs3)c2c1", "bioavailability", "72%"],
  ["Cc1cc(-c2ccc3nc(-c4cnn(CC(C)(C)O)c4)nc(N4CCOC[C@@H]4c4ccccc4)c3c2)cn(C)c1=O", "bioavailability", "85%"],
  ["Cc1noc(C)c1-c1ccc2nc(-c3cnn(CC(C)(C)O)c3)nc(N3CCOC[C@@H]3c3ccc(Cl)cc3)c2c1", "bioavailability", "44%"],
  ["Cc1noc(C)c1-c1ccc2nc(-c3cnn(CC(C)(C)O)c3)nc(N3CCN(S(C)(=O)=O)C[C@@H]3c3ccccc3)c2c1", "bioavailability", "86%"]
]}

----------
TARGET DESC: Bromodomain testis-specific protein (Homo sapiens)
PROTOCOL SUMMARY: Binding affinity to human partial length BRDT (BD1,2) (N21 to E382 residues) expressed in bacterial expression system by BROMOscan assay
ASSAY READOUT: Kd (nM)

{"columns": ["STRUCTURE NOTATION", "ASSAY READOUT", "EXPERIMENTAL VALUE"],
 "data": [
  ["Cc1noc(C)c1-c1ccc2nc(-c3cnn(CC(C)(C)O)c3)nc(N3CCOC[C@@H]3c3ccccc3)c2c1", "Kd", 170]
]}

----------
TARGET DESC: Bromodomain-containing protein 3 (Homo sapiens)
Sequence (Q15059 whole entry, the tested form may be a part): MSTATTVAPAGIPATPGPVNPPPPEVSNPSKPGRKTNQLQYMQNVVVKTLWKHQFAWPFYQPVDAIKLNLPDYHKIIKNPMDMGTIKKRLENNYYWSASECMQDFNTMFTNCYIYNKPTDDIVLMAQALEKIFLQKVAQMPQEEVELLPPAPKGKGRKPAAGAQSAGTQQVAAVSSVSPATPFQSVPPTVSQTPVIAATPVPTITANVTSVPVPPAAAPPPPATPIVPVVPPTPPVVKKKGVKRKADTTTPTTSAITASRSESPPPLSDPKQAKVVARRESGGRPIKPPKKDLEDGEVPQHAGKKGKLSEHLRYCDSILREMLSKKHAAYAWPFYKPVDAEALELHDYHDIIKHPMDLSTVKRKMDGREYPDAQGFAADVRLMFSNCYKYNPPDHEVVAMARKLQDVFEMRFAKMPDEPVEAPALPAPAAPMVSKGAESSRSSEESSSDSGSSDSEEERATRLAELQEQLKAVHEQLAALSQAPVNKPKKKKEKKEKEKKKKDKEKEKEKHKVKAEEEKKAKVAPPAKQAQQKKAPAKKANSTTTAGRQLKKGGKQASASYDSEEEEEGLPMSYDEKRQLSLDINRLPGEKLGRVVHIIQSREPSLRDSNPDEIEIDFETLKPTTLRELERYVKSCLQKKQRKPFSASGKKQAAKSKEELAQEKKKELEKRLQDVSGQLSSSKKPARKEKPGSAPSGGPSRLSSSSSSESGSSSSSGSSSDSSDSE
PROTOCOL SUMMARY: Binding affinity to human partial length BRD3 (BD1,2) (P24 to P416 residues) expressed in bacterial expression system by BROMOscan assay
pKd: −log10 of the molar value.
ASSAY READOUT: pKd

{"columns": ["STRUCTURE NOTATION", "ASSAY READOUT", "EXPERIMENTAL VALUE"],
 "data": [
  ["Cc1noc(C)c1-c1ccc2nc(-c3cnn(CC(C)(C)O)c3)nc(N3CCOC[C@@H]3c3ccccc3)c2c1", "pKd", 7.54]
]}

The values you see were collected from ChEMBL document CHEMBL4665641.
